Target: T1, human CD39 (ectonucleoside triphosphate diphosphohydrolase 1) (UniProt P49961 1-510)
T1 chain: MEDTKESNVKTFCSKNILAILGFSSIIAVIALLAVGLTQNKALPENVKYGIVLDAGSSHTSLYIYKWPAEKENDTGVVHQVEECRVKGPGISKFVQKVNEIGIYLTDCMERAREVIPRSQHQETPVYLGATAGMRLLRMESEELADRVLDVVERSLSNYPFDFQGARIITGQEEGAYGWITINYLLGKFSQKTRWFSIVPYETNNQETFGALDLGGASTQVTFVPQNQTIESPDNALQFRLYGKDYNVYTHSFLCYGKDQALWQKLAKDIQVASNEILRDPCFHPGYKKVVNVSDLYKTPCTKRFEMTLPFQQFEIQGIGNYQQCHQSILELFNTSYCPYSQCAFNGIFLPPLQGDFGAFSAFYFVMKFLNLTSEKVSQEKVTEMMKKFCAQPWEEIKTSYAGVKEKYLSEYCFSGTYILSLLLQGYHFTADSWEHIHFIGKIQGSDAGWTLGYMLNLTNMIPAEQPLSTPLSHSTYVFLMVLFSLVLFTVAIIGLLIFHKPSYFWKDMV
Test: ForteBio (BLI); IgG, monovalent
reported.property: pKd
The meaning of pKd here: minus log10 of the concentration in molar units.

Quick check: pKd of SRF365-C (antibody, V domains shown) VH: QVQLVQSGAEVKKPGSSVKVSCKASGGTFSDKAISWVRQAPGQGLEWMGSILPIFGTANYAQKFQGRVTITADESTSTAYMELSSLRSEDTAVYYCAREAGYYRYRYFDLWGRGTLVTVSS VL: EIVMTQSPATLSVSPGERATLSCRASQSVSSNLAWYQQKPGQAPRLLIYGASTRATGIPARFSGSGSGTEFTLTISSLQSEDFAVYYCQQHALWPLTFGGGTKVEIKR ?
9.25

Reference for the values: patent US20200399394A1
